Measured values drawn from ChEMBL document CHEMBL1137189 for this set.

# System: Staphylococcus aureus
# TEST_SUMMARY: Minimum inhibitory concentration against methicillin-resistant Staphylococcus aureus
# Type: functional
Task for the reader: assign each of the following molecules its reported MIC50.
One number for each entry, in µg/mL.

* CC1=C2OCCc3ccc(C)c(c32)C(=O)C1=O | 16
* CCOC(=O)CC1COC2=C(C)C(=O)C(=O)c3c(C)ccc1c32 (stereo unspecified) | 16

I'm hoping you can list MIC50 for every molecule here, please.
1. CCC1=COC2=C(C)C(=O)C(=O)c3c(C)ccc1c32
2. CC1=C2OC=C(C#N)c3ccc(C)c(c32)C(=O)C1=O
3. CCCCC1=COC2=C(C)C(=O)C(=O)c3c(C)ccc1c32
4. CC1=C2OC=C(C(F)(F)F)c3ccc(C)c(c32)C(=O)C1=O
5. CN[C@H](CC(C)C)C(=O)N[C@H]1C(=O)N[C@@H](CC(N)=O)C(=O)N[C@H]2C(=O)N[C@H]3C(=O)N[C@H](C(=O)N[C@H](C(=O)O)c4cc(O)cc(O)c4-c4cc3ccc4O)[C@H](O)c3ccc(c(Cl)c3)Oc3cc2cc(c3O[C@@H]2O[C@H](CO)[C@@H](O)[C@H](O)[C@H]2O[C@H]2C[C@](C)(N)[C@H](O)[C@H](C)O2)Oc2ccc(cc2Cl)[C@H]1O
6. CC1=C2OCC(C)(O)c3ccc(C)c(c32)C(=O)C1=O (stereo unspecified)

[4, 8, 8, 16, 2, 16]

###

# Tested on: Staphylococcus aureus
# TEST_SUMMARY: Minimum inhibitory concentration against methicillin-resistant Staphylococcus aureus
# Format: functional
Task for the reader: assign each of the following compounds its reported MIC50.
Give bare numbers, in µg/mL.

- CC1=C2OCC(Cl)(C(F)(F)F)c3ccc(C)c(c32)C(=O)C1=O (stereo not drawn): 16
- CC1=C2OCC(C)c3ccc(C)c(c32)C(=O)C1=O (stereo not drawn) [MANSONONE E]: 8
- CCC1(O)COC2=C(C)C(=O)C(=O)c3c(C)ccc1c32 (stereo not drawn): 16

I'm hoping you can list MIC50 for every compound here, please.
1. CC1=C2OC=Cc3ccc(C)c(c32)C(=O)C1=O
2. CCC1COC2=C(C)C(=O)C(=O)c3c(C)ccc1c32 (stereo not drawn)

1: 8; 2: 32

Entry under review: CC1=C2OC=C(C(C)C)c3ccc(C)c(c32)C(=O)C1=O . Reported MIC50? 4
